Molecular target: GlcNAc(b1-2)[GlcNAc(b1-4)]Man(a1-3)[GlcNAc(b1-4)][GlcNAc(b1-2)Man(a1-6)]Man(b1-4)GlcNAc(b1-4)GlcNAc
Experiment: glycan array binding signal (z-score within array); higher = stronger binding
Settings: glycan notation: IUPAC condensed, linker removed
This excerpt belongs to a sample that is enriched for the strongest signals.
Catalogue of glycan array binding signal (z-score) values
Enter a number only.

# binder, glycan array binding signal (z-score)
measured = [
    ("SP8524D-bot-399-27-399 (Bacteroides ovatus) (protein) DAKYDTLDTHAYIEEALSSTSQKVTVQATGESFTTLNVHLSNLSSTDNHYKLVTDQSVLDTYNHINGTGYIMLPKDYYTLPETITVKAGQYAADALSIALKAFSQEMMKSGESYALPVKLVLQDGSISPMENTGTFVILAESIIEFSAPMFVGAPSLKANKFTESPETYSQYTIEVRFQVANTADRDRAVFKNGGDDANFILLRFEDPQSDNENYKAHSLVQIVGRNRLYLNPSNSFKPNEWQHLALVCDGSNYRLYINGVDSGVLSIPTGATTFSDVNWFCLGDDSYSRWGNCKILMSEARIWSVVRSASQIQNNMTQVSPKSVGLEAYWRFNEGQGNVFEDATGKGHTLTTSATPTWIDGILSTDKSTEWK", 8.43),
    ("CGL (Crenomytilus grayanus), H2FH31 (protein) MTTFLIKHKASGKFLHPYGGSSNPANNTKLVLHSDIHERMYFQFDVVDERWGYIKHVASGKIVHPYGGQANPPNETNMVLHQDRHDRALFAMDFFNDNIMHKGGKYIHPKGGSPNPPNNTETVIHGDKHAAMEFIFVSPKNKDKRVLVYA", -0.324),
    ("CC1G-11630 (Coprinopsis cinerea), A8P462 (protein) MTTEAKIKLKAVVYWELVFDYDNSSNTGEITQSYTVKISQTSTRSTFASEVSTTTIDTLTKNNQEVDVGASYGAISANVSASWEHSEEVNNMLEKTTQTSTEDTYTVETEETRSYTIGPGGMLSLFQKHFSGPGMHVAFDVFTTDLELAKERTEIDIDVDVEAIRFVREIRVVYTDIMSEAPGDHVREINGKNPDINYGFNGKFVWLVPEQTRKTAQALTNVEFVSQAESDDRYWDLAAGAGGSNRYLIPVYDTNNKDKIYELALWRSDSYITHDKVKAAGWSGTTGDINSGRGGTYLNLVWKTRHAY", -0.368),
    ("Lb MiSSP8 (Laccaria bicolor) (protein) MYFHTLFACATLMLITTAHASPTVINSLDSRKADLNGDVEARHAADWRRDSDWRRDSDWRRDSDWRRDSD", -0.64),
]

Now turn to the next binder.
Item ECL (Erythrina cristagalli), Q6YD91 (protein) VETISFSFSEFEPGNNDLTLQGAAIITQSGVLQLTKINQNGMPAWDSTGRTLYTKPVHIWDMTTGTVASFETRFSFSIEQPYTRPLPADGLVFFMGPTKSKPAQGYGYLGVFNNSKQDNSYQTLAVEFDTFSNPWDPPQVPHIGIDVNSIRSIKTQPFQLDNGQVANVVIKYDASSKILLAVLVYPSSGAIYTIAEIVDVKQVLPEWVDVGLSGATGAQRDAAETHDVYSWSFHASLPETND : provide glycan array binding signal (z-score)
-0.235
